molecular target: Phospholipid hydroperoxide glutathione peroxidase GPX4 (Homo sapiens); experiment: Primary qHTS Assay for Inhibitors of Recombinant Selenoprotein Glutathione Peroxidase 4 (GPX4) (AID 1845192); settings: recombinant GPX4, GR-coupled NADPH fluorescence, 15 min; series mostly up to 50 µM; further: on the % scale 0 is the no-effect control and ±100 the full control effect; nearly all actives have a fitted effect of over 65% in size
Records with an inconclusive call do not appear. The source made the active and inactive calls. The call rests on the fitted dose curve; in most records, active means well fitted inhibition curve with a large enough effect; inconclusive means small, poorly fitted or top-dose-only effect; inactive means flat fitted curve, though single readings scatter.
assay_metric: activity change, negative = inhibition

molecule: CCCCC(CC)COc1ccc(-c2nc(-c3ccc(OC)cc3)nc(-c3ccc(OCC(CC)CCCC)cc3O)n2)c(O)c1 (stereo not given)
assay_metric: activity change, negative = inhibition
data_value: -23.8% [at 4.52 µM] (inactive)

molecule: CCC(=C(CC)c1ccc(OP(=O)(O)O)cc1)c1ccc(OP(=O)(O)O)cc1
assay_metric: activity change, negative = inhibition
data_value: 1.61% [at 0.409 µM] (inactive)

molecule: CC(C)OC(=O)CCC/C=C\C[C@@H]1[C@@H](CC[C@@H](O)CCc2ccccc2)[C@H](O)C[C@@H]1O
assay_metric: activity change, negative = inhibition
data_value: 4.91% [at 9.73 µM] (inactive)

molecule: C[C@@H]1O[C@@H](O[C@@H]2/C=C/C=C/C=C\C=C\C[C@H](C)OC(=O)/C=C/[C@H]3O[C@@H]3C[C@H](O)C[C@]3(O)C[C@@H](O)[C@@H](C(=O)O)[C@H](C2)O3)[C@H](O)[C@H](N)[C@@H]1O
assay_metric: activity change, negative = inhibition
data_value: -18.7% [at 9.73 µM] (inactive)

molecule: C[N+](C)(C)CCOP(=O)([O-])OP(=O)(O)OC[C@H]1OC(n2ccc(N)nc2=O)[C@H](O)[C@@H]1O (stereo not given in full)
assay_metric: activity change, negative = inhibition
data_value: 0.205% [at 0.409 µM] (inactive)

###

molecular target: Rap guanine nucleotide exchange factor 3 (Homo sapiens); assay: Counterscreen qHTS for antagonist of cAMP-regulated guanine nucleotide exchange factor 3 (EPAC1) (AID 1645888); conditions: Rap1B-BODIPY-GDP nucleotide exchange, fluorescence; series mostly up to 154 µM;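 further: fluorescence loss as bound BODIPY-GDP is released from Rap1B; % of control where 0% means no effect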
Records with an inconclusive call do not appear. Activity calls are given as the source filed them. Calls come from the whole dose curve; as a rule, active = well fitted inhibition curve with a large enough effect; inconclusive = small, poorly fitted or top-dose-only effect; inactive = no such curve, though single readings can be large or run the other way.
assay_metric: activity change, negative = inhibition

compound: COc1ccc(N(C(=O)c2snc(C(N)=O)c2N)C(C(=O)NC2CCCC2)c2cccs2)cc1OC (stereo not given)
subject_of_test: Rap guanine nucleotide exchange factor 3 (Homo sapiens)
assay_metric: activity change, negative = inhibition
data_value: inactive
--
compound: O=C(O)c1cccc(N2C(=O)c3cc([N+](=O)[O-])cc4cc([N+](=O)[O-])cc(c34)C2=O)c1
subject_of_test: Rap guanine nucleotide exchange factor 3 (Homo sapiens)
assay_metric: activity change, negative = inhibition
data_value: inactive
--
compound: CCOC(=O)C1CCCN(C(=O)C2(c3ccc(Cl)cc3)CCCC2)CC1 (stereo not given)
subject_of_test: Rap guanine nucleotide exchange factor 3 (Homo sapiens)
assay_metric: activity change, negative = inhibition
data_value: inactive
--
compound: COC(=O)c1ccc(COc2ccc(/C=C/C(=O)c3ccc(OC)c(CSCC(=O)O)c3)cc2OC)cc1
subject_of_test: Rap guanine nucleotide exchange factor 3 (Homo sapiens)
assay_metric: activity change, negative = inhibition
data_value: inactive
--
compound: Cc1nn(C)c(C)c1N1C(=O)c2cccc3c(N)ccc(c23)C1=O
subject_of_test: Rap guanine nucleotide exchange factor 3 (Homo sapiens)
assay_metric: activity change, negative = inhibition
data_value: 353% [at 30.8 µM] (inactive)
--
compound: O=S(=O)(Nc1ccccc1N1CCCC1)c1ccccc1C(F)(F)F
subject_of_test: Rap guanine nucleotide exchange factor 3 (Homo sapiens)
assay_metric: activity change, negative = inhibition
data_value: inactive
--
compound: O=C(NCc1ccco1)c1sc(=S)n2c1[nH]c(=O)c1ccccc12
subject_of_test: Rap guanine nucleotide exchange factor 3 (Homo sapiens)
assay_metric: activity change, negative = inhibition
data_value: 3.28% [at 30.8 µM] (inactive)
--
compound: Cc1ccc2oc(=O)n(Cc3ccccc3)c2c1
subject_of_test: Rap guanine nucleotide exchange factor 3 (Homo sapiens)
assay_metric: activity change, negative = inhibition
data_value: 1.72% [at 30.8 µM] (inactive)
--
compound: O=C(CNC(=O)c1sc2ccccc2c1Cl)NCc1cccc(C(F)(F)F)c1
subject_of_test: Rap guanine nucleotide exchange factor 3 (Homo sapiens)
assay_metric: activity change, negative = inhibition
data_value: inactive
--
compound: C=C1CCN(C(Cc2ccccc2)C(=O)OC)S(=O)(=O)c2ccc(F)cc21 (stereo not given)
subject_of_test: Rap guanine nucleotide exchange factor 3 (Homo sapiens)
assay_metric: activity change, negative = inhibition
data_value: 2.02% [at 30.8 µM] (inactive)
